TARGET_OR_TEST_SYSTEM: SARS-CoV-2 PLpro (Severe acute respiratory syndrome coronavirus 2)
ASSAY_SUMMARY: biochemical
EXPERIMENTAL_PARAMETERS: dose-dependent study; read-out: IC50, PLpro DUB activity (Figure 6)
PROPERTY_MEASURED: IC50 (µM)

INSERT INTO measurements (smiles_structure, unit_of_measure, numeric_value) VALUES
  ('O=c1c(O)cc([C@H]2Oc3cc(O)cc(O)c3C[C@H]2O)cc2c([C@H]3Oc4cc(O)cc(O)c4C[C@H]3O)cc(O)c(O)c12', 'µM', 13.2);

====

TARGET_OR_TEST_SYSTEM: SARS-CoV-2 PLpro (Severe acute respiratory syndrome coronavirus 2, UniProt P0DTD1)
ASSAY_SUMMARY: biochemical
PROPERTY_MEASURED: IC50 (µM)

INSERT INTO measurements (compound, target_or_test_system, numeric_value) VALUES
  ('C/C=C1/[C@H](O[C@@H]2O[C@H](CO)[C@@H](O)[C@H](O)[C@H]2O)OC=C(C(=O)OC)[C@H]1CC(=O)OCCc1ccc(O)c(O)c1 [oleuropein]', 'SARS-CoV-2 PLpro (Severe acute respiratory syndrome coronavirus 2, UniProt P0DTD1)', 132),
  ('O=c1c2cc(O)c(O)cc2oc2cc(O)c([C@@H]3O[C@H](CO)[C@@H](O)[C@H](O)[C@H]3O)c(O)c12 [mangiferin]', 'SARS-CoV-2 PLpro (Severe acute respiratory syndrome coronavirus 2, UniProt P0DTD1)', 104);

====

TARGET_OR_TEST_SYSTEM: SARS-CoV-2 PLpro (Severe acute respiratory syndrome coronavirus 2, UniProt P0DTD1)
ASSAY_SUMMARY: biochemical
Type: biochemical
EXPERIMENTAL_PARAMETERS: read-out: inhibition of PLpro proteolytic activity
// values below are reported inhibition at 200 µM
PROPERTY_MEASURED: inhibition at 200 µM (%)

INSERT INTO measurements (smiles_structure, sign_qualifier, numeric_value) VALUES
  ('O=c1c2cc(O)c(O)cc2oc2cc(O)c([C@@H]3O[C@H](CO)[C@@H](O)[C@H](O)[C@H]3O)c(O)c12', '>', 50),
  ('O=C(/C=C/c1ccc(O)c(O)c1)O[C@H](Cc1ccc(O)c(O)c1)C(=O)O', '=', 50),
  ('C/C=C1/[C@H](O[C@@H]2O[C@H](CO)[C@@H](O)[C@H](O)[C@H]2O)OC=C(C(=O)OC)[C@H]1CC(=O)OCCc1ccc(O)c(O)c1', '=', 60),
  ('C[C@@H]1O[C@@H](OC[C@H]2O[C@@H](Oc3c(-c4ccc(O)c(O)c4)oc4cc(O)cc(O)c4c3=O)[C@H](O)[C@@H](O)[C@@H]2O)[C@H](O)[C@H](O)[C@H]1O', '=', 88);
